target: 5-hydroxytryptamine receptor 1A (Homo sapiens, UniProt P08908)
Sequence (P08908 whole entry): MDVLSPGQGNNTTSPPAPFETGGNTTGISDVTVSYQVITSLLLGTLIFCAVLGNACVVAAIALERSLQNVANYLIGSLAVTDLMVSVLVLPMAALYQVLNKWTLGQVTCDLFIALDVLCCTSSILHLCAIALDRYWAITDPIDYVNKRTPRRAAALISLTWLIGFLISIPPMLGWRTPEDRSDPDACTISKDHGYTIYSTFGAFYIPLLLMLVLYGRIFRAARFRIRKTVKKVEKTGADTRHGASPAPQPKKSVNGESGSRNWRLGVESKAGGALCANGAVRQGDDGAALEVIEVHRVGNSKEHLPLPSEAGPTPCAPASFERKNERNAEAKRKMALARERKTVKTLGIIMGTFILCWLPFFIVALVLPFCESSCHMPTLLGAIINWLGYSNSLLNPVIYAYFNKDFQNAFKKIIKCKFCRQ
pKi: −log10 of the molar value.
endpoint label: pKi

> print(dat)
                           substance.smiles  value
1  O=S(=O)(c1cccc2ncccc12)N1CCC(CCN2CCN(c3cccc(Cl)c3Cl)CC2)CC1   7.35

a. O=S(=O)(c1cccc2ncccc12)N1CCC(CCN2CCN(c3ccc(Cl)c(Cl)c3)CC2)CC1
b. O=S(=O)(c1cccc2ncccc12)N1CCC(CCN2CCN(c3cccc(C(F)(F)F)c3)CC2)CC1
stdin: Param metric = pKi; output whichever of a , b has the minimum value. Give the chosen item's label as your response.
stdout: a
(a: 6.59, b: 7.40)

###

# Ki measurements, system: UniProt P50406
# Sequence (P50406 whole entry): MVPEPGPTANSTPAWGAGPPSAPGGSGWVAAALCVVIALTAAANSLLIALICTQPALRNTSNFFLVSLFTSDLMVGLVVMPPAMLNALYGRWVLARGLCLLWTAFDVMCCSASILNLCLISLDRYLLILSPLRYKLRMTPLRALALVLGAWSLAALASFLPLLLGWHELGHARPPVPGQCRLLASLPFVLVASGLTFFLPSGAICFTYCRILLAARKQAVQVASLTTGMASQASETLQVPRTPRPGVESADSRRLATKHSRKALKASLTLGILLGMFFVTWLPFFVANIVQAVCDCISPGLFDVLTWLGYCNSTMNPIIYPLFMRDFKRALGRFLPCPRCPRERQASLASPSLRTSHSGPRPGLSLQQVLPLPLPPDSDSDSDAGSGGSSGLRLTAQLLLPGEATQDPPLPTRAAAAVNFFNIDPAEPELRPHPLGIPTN
endpoint label: Ki (nM)

Some entries whose results are on file:
> print(dat)
                           substance.smiles  endpoint.label  scale.unit  value
1  O=S(=O)(c1cccc2ncccc12)N1CCC(CCN2CCN(c3ccc(F)cc3)CC2)CC1              Ki          nM   1460
2  O=S(=O)(c1cncc2ccccc12)N1CCC(CCN2CCN(c3ccccc3)CC2)CC1              Ki          nM   2410
3  O=S(=O)(c1cncc2ccccc12)N1CCC(CCN2CCN(c3ccc(Cl)c(Cl)c3)CC2)CC1              Ki          nM   1040

a. O=S(=O)(c1cncc2ccccc12)N1CCC(CCN2CCN(c3cccc(Cl)c3Cl)CC2)CC1
b. O=S(=O)(c1cccc2ncccc12)N1CCC(CCN2CCN(c3ccc(Cl)c(Cl)c3)CC2)CC1
c. O=S(=O)(c1cncc2ccccc12)N1CCC(CCN2CCN(c3ccc(F)cc3)CC2)CC1
d. O=S(=O)(c1cccc2ncccc12)N1CCC(CCN2CCN(c3cccc(F)c3)CC2)CC1
stdin: Ranking field: Ki; order: falling. Please express your ranking as an ordered list of the labels.
stdout: d, c, b, a
(d: 8280 nM, c: 1860 nM, b: 791 nM, a: 309 nM)

###

This document collects Ki values reported for 5-hydroxytryptamine receptor 2A (Homo sapiens, UniProt P28223).
endpoint label: Ki (nM)

> print(dat)
                           substance.smiles                              study.target  value
1  O=S(=O)(c1cccc2ncccc12)N1CCC(CCN2CCN(c3ccc(Cl)cc3)CC2)CC1  5-hydroxytryptamine receptor 2A (Homo sapiens, UniProt P28223)    152
2  O=S(=O)(c1cncc2ccccc12)N1CCC(CCN2CCN(c3cccc(Cl)c3)CC2)CC1  5-hydroxytryptamine receptor 2A (Homo sapiens, UniProt P28223)    157

P. O=S(=O)(c1cncc2ccccc12)N1CCC(CCN2CCN(c3ccc(F)cc3)CC2)CC1
Q. O=S(=O)(c1cccc2ncccc12)N1CCC(CCN2CCN(c3cccc(Cl)c3Cl)CC2)CC1
R. O=S(=O)(c1cccc2ncccc12)N1CCC(CCN2CCN(c3cccc(F)c3)CC2)CC1
stdin: Let's sort these by Ki, smallest first. Go ahead? Arrange the labels as the request states and list them.
stdout: P, Q, R

###

These compounds were tested on D(2) dopamine receptor (Homo sapiens, UniProt P14416); Ki is the recorded read-out.
Sequence (P14416 whole entry): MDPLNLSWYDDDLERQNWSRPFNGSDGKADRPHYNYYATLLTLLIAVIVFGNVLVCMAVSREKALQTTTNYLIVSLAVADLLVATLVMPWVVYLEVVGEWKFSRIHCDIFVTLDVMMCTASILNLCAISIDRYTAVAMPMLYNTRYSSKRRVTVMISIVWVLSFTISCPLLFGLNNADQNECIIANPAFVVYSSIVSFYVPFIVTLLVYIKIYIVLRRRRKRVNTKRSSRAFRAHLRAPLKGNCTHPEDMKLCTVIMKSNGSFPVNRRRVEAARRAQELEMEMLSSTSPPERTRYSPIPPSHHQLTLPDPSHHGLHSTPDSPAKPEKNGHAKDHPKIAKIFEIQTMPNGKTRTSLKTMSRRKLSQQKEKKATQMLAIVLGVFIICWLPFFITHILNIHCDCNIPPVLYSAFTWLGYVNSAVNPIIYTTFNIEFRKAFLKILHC
endpoint label: Ki (nM)

> print(dat)
                           substance.smiles  endpoint.label  value
1  O=S(=O)(c1cccc2ncccc12)N1CCC(CCN2CCN(c3ccc(Cl)c(Cl)c3)CC2)CC1              Ki    121
2  O=S(=O)(c1cncc2ccccc12)N1CCC(CCN2CCN(c3cccc(Cl)c3)CC2)CC1              Ki     37
3  O=S(=O)(c1cncc2ccccc12)N1CCC(CCN2CCN(c3ccc(Cl)c(Cl)c3)CC2)CC1              Ki    145
4  O=S(=O)(c1cncc2ccccc12)N1CCC(CCN2CCN(c3cccc(Cl)c3Cl)CC2)CC1              Ki     30
5  O=S(=O)(c1cccc2ncccc12)N1CCC(CCN2CCN(c3cccc(F)c3)CC2)CC1              Ki   1820

I. O=S(=O)(c1cncc2ccccc12)N1CCC(CCN2CCN(c3cccc(C(F)(F)F)c3)CC2)CC1
II. O=S(=O)(c1cncc2ccccc12)N1CCC(CCN2CCN(c3ccc(F)cc3)CC2)CC1
III. O=S(=O)(c1cccc2ncccc12)N1CCC(CCN2CCN(c3ccc(F)cc3)CC2)CC1
stdin: Arrange the 3 compounds by rising Ki, starting with the smallest. Put the labels in the order asked and list them.
stdout: I, III, II
(I: 148 nM, III: 223 nM, II: 418 nM)

Reference for the values: ChEMBL document CHEMBL4033716
